assay: Oral bioavailability in Beagle dog at 5 mg/kg measured upto 24 hrs by LC-MS/MS analysis; assay type: ADME, organism-based, Canis lupus familiaris; details: in vivo
measure: bioavailability
Answer format reminder: number followed by unit.

Fill blank: measured bioavailability of the compound C[C@H]1CN(C2COC2)CCN1c1ccc(Nc2cc(-c3ccnc(N4CCn5c(cc6c5CC(C)(C)C6)C4=O)c3CO)cn(C)c2=O)nc1 is ____.
130%

* * *

assay: Apparent permeability from apical to basolateral side in MDCK cells at 10 uM incubated for 3 hrs by LC-MS/MS analysis; assay type: ADME, cell-based, Canis lupus familiaris; conditions: dog
measure: Papp A→B at 3 h, 10 µM (nm/s)
Please state the figure in nm/s; there is no need to write the unit.

Which Papp A→B at 3 h, 10 µM value is on record for Cn1cc(-c2ccnc(-n3ncc4cc(C(C)(C)C)cc(F)c4c3=O)c2CO)cc(NC(=O)[C@@H]2C[C@H]2F)c1=O ?
140

May I ask what Papp A→B at 3 h, 10 µM has been recorded for C[C@H]1CN(C2COC2)CCN1c1ccc(Nc2cc(-c3ccnc(N4CCn5c(cc6c5CC(C)(C)C6)C4=O)c3CO)cn(C)c2=O)nc1 [FENEBRUTINIB] ?
151

May I ask what Papp A→B at 3 h, 10 µM has been recorded for Cn1cc(-c2ccnc(-n3ncc4cc(C(C)(C)C)cc(F)c4c3=O)c2CO)cc(NC(=O)[C@H]2C[C@@H]2F)c1=O ?
108

Requested field: Papp A→B at 3 h, 10 µM. Item: Cn1cc(-c2ccnc(-n3ncc4cc(C(C)(C)C)cc(F)c4c3=O)c2CO)cc(NC(=O)[C@H]2C[C@H]2F)c1=O
64

Endpoint output: Papp A→B at 3 h, 10 µM of Cn1cc(-c2ccnc(-n3ncc4cc(C(C)(C)C)cc(F)c4c3=O)c2CO)cc(NC(=O)C2CC2)c1=O . Value?
135

The origin of these recorded values is ChEMBL document CHEMBL4619817.
